B1: Caulobacter ParB omega fusion; a variant is named by its letters at X, in order, B8GW30 (parent)
chain: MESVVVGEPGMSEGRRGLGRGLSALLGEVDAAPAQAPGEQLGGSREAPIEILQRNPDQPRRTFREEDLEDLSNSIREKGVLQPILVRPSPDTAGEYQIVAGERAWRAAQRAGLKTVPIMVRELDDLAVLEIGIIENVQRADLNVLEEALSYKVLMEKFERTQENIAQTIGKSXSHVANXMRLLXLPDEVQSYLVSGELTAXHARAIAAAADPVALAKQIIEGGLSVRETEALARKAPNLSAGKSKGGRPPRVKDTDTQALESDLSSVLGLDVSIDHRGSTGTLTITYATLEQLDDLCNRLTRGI

- Variants of: B1
- TEST DETAILS: one-hybrid fitness for binding parS DNA (scaled: cognate 1, non-cognate 0); higher = stronger binding
- MEASUREMENT CONTEXT: with parS DNA site
In all, about 81,000 sequences were measured (“one-hybrid fitness for binding parS DNA”: median about -0.17, highest 2% from about 0.51 on). The entries come from a sample that favours the highest values as a whole.
READOUT NAME: one-hybrid fitness for binding parS DNA

Query :: # return recorded one-hybrid fitness for binding parS DNA for entry `RQDN`
Result :: 0.431
